# Target or test system: rat brain farnesyl:protein transferase (rat, UniProt Q04631 2-377; Q02293 1-437)
# Assay name: farnesyltransferase activity inhibition; FIG. 12B
Measured property: Ki (nM)
Reply with just the number (in nM).

// returns reported Ki for input CVFM
35

Reference for the values: patent US6936431
